Kindly state CC50 for each of the entries shown.
- MEASUREMENT NOTES: Cytotoxicity against human MT2 cells
- Assay type: cell-based

Which value of CC50 has been reported for Nc1ncnc2c1ncn2[C@H]1C=C[C@@H](OCP(=O)(O)O)O1 in the records? > 1 mM

Which value of CC50 has been reported for Nc1ncnc2c1ncn2[C@@H]1C=C[C@H](OCP(=O)(O)O)O1 in the records? > 1 mM

Which value of CC50 has been reported for Cc1cn([C@H]2C[C@H](N=[N+]=[N-])[C@@H](CO)O2)c(=O)[nH]c1=O [ZIDOVUDINE] in the records? > 0.2 mM

Which value of CC50 has been reported for C[C@H](Cn1cnc2c(N)ncnc21)OCP(=O)(O)O [TENOFOVIR ANHYDROUS] in the records? > 0.5 mM

Which value of CC50 has been reported for Nc1ncnc2c1ncn2[C@@H]1O[C@H](OCP(=O)(O)O)C=C1F [GS-9148] in the records? > 1 mM

Data provenance: ChEMBL document CHEMBL1143131
